# Tested on: JAK1(JH2domain-pseudokinase)
# test_summary: KINOMEscan kinase binding assay
# experimental_context: JAK1(JH2domain-pseudokinase); at 1 μM
measurement_label: % Ctrl (%)

INSERT INTO assay_data (smiles_entry, measurement_label, units, recorded_number) VALUES
  ('Cc1cc2c([nH]1)/C=C1\C(=O)Nc3ccc(cc31)-c1c(nn(C)c1C)OCCCN(C)C2=O', '% Ctrl', '%', 100),
  ('Cc1cc2c([nH]1)/C=C1\C(=O)Nc3c(Cl)cc(cc31)-c1cn(C)nc1COC[C@@H](C)NC2=O', '% Ctrl', '%', 3.1),
  ('Cc1cc2c([nH]1)/C=C1\C(=O)Nc3ccc(cc31)-c1c(nn(C)c1C)COCCN(C)C2=O', '% Ctrl', '%', 30),
  ('C[C@@H]1COCc2nn(C)cc2-c2cc(Cl)c3c(c2)/C(=C/c2[nH]ccc2C(=O)N1)C(=O)N3', '% Ctrl', '%', 0.25),
  ('Cc1cc2c([nH]1)/C=C1\C(=O)Nc3c(Cl)cc(cc31)-c1cn(C)nc1COC[C@@H](C)N(C)C2=O', '% Ctrl', '%', 0.85);

====

Measured % Ctrl by item
# System: LYN
# test_summary: KINOMEscan kinase binding assay
# experimental_context: at 1 μM
measurement_label: % Ctrl (%)

INSERT INTO results (smiles_entry, measurement_label, recorded_number) VALUES
  ('Cc1cc2c([nH]1)/C=C1\C(=O)Nc3c(Cl)cc(cc31)-c1cn(C)nc1COC[C@@H](C)N(C)C2=O', '% Ctrl', 91),
  ('Cc1cc2c([nH]1)/C=C1\C(=O)Nc3ccc(cc31)-c1c(nn(C)c1C)COCCN(C)C2=O', '% Ctrl', 74),
  ('Cc1cc2c([nH]1)/C=C1\C(=O)Nc3ccc(cc31)-c1c(nn(C)c1C)OCCCN(C)C2=O', '% Ctrl', 100),
  ('Cc1cc2c([nH]1)/C=C1\C(=O)Nc3c(Cl)cc(cc31)-c1cn(C)nc1COC[C@@H](C)NC2=O', '% Ctrl', 90),
  ('C[C@@H]1COCc2nn(C)cc2-c2cc(Cl)c3c(c2)/C(=C/c2[nH]ccc2C(=O)N1)C(=O)N3', '% Ctrl', 87);

====

# Test system: FGFR1
# test_summary: KINOMEscan kinase binding assay
# experimental_context: at 1 μM
# Procedure: Kinase binding assays were performed at Eurofins/DiscoveRx using the general KINOMEscan Protocol (Fabian, M. A. et al., “A small molecule-kinase interaction map for clinical kinase inhibitors,” Nat. Biotechnol. 2005, 23(3):329-36). […] The kinase concentration in the eluates was measured by qPCR. […] Dissociation constants (Kds) for test compound-kinase interactions were calculated by measuring the amount of kinase captured on the solid support as a function of the test compound concentration.
measurement_label: % Ctrl

INSERT INTO results (smiles_entry, result) VALUES
  ('Cc1cc2c([nH]1)/C=C1\C(=O)Nc3ccc(cc31)-c1c(nn(C)c1C)COCCN(C)C2=O', '100%'),
  ('Cc1cc2c([nH]1)/C=C1\C(=O)Nc3c(Cl)cc(cc31)-c1cn(C)nc1COC[C@@H](C)N(C)C2=O', '84%'),
  ('Cc1cc2c([nH]1)/C=C1\C(=O)Nc3ccc(cc31)-c1c(nn(C)c1C)OCCCN(C)C2=O', '100%'),
  ('C[C@@H]1COCc2nn(C)cc2-c2cc(Cl)c3c(c2)/C(=C/c2[nH]ccc2C(=O)N1)C(=O)N3', '75%'),
  ('Cc1cc2c([nH]1)/C=C1\C(=O)Nc3c(Cl)cc(cc31)-c1cn(C)nc1COC[C@@H](C)NC2=O', '80%');

====

# System: FLT3
# test_summary: KINOMEscan kinase binding assay
# experimental_context: at 1 μM
Measured % Ctrl by item
measurement_label: % Ctrl (%)

INSERT INTO measurements (smiles_entry, subject_of_test, measurement_label, units, recorded_number) VALUES
  ('Cc1cc2c([nH]1)/C=C1\C(=O)Nc3c(Cl)cc(cc31)-c1cn(C)nc1COC[C@@H](C)N(C)C2=O', 'FLT3', '% Ctrl', '%', 94),
  ('Cc1cc2c([nH]1)/C=C1\C(=O)Nc3ccc(cc31)-c1c(nn(C)c1C)OCCCN(C)C2=O', 'FLT3', '% Ctrl', '%', 92),
  ('C[C@@H]1COCc2nn(C)cc2-c2cc(Cl)c3c(c2)/C(=C/c2[nH]ccc2C(=O)N1)C(=O)N3', 'FLT3', '% Ctrl', '%', 100),
  ('Cc1cc2c([nH]1)/C=C1\C(=O)Nc3ccc(cc31)-c1c(nn(C)c1C)COCCN(C)C2=O', 'FLT3', '% Ctrl', '%', 67),
  ('Cc1cc2c([nH]1)/C=C1\C(=O)Nc3c(Cl)cc(cc31)-c1cn(C)nc1COC[C@@H](C)NC2=O', 'FLT3', '% Ctrl', '%', 57);

====

# System: EGFR(L858R, T790M)
# test_summary: KINOMEscan kinase binding assay
# experimental_context: at 1 μM
# Protocol: Kinase binding assays were performed at Eurofins/DiscoveRx using the general KINOMEscan Protocol (Fabian, M. A. et al., “A small molecule-kinase interaction map for clinical kinase inhibitors,” Nat. Biotechnol. 2005, 23(3):329-36). […] The kinase concentration in the eluates was measured by qPCR. […] Dissociation constants (Kds) for test compound-kinase interactions were calculated by measuring the amount of kinase captured on the solid support as a function of the test compound concentration.
measurement_label: % Ctrl (%)

INSERT INTO results (smiles_entry, recorded_number) VALUES
  ('Cc1cc2c([nH]1)/C=C1\C(=O)Nc3c(Cl)cc(cc31)-c1cn(C)nc1COC[C@@H](C)N(C)C2=O', 64),
  ('Cc1cc2c([nH]1)/C=C1\C(=O)Nc3ccc(cc31)-c1c(nn(C)c1C)OCCCN(C)C2=O', 89),
  ('Cc1cc2c([nH]1)/C=C1\C(=O)Nc3ccc(cc31)-c1c(nn(C)c1C)COCCN(C)C2=O', 62);

====

# System: TEC
# test_summary: KINOMEscan kinase binding assay
# experimental_context: at 1 μM
measurement_label: % Ctrl (%)

INSERT INTO assay_data (molecule, subject_of_test, units, recorded_number) VALUES
  ('Cc1cc2c([nH]1)/C=C1\C(=O)Nc3c(Cl)cc(cc31)-c1cn(C)nc1COC[C@@H](C)NC2=O [Cpd. 3]', 'TEC', '%', 96),
  ('Cc1cc2c([nH]1)/C=C1\C(=O)Nc3ccc(cc31)-c1c(nn(C)c1C)COCCN(C)C2=O [Cpd. 2]', 'TEC', '%', 83),
  ('Cc1cc2c([nH]1)/C=C1\C(=O)Nc3c(Cl)cc(cc31)-c1cn(C)nc1COC[C@@H](C)N(C)C2=O [Cpd. 5]', 'TEC', '%', 94),
  ('Cc1cc2c([nH]1)/C=C1\C(=O)Nc3ccc(cc31)-c1c(nn(C)c1C)OCCCN(C)C2=O [Cpd. 1]', 'TEC', '%', 91);

Origin of measurements: patent US20250074920A1
